# assay: Equilibrium solubility, shake-flask method
# Assay type: physicochemical
# measurement-parameters: 37 °C, aqueous buffer, thermodynamic from solid; pH 8.0; read-out: Equilibrium solubility in buffer solution
property-name: solubility thermodynamic
Put down the number, then write its unit next to it.

**Query** Need solubility thermodynamic, item CCCCCCCCCCCCCCCCCC(=O)N[C@@H](Cc1ccc(O)cc1)C(=O)[O-].[K+] [NsTyr-2K, N-stearoyl tyrosine potassium salt]
**Result** 286 µg/mL

---

# assay: Equilibrium solubility, shake-flask method
# Assay type: physicochemical
# measurement-parameters: 37 °C, aqueous buffer, thermodynamic from solid; pH 2.0; read-out: Equilibrium solubility in buffer solution
property-name: solubility thermodynamic

**Query** Dear colleague, I am looking for the recorded solubility thermodynamic of the following molecule: CCCCCCCCCCCCCCCCCC(=O)N[C@@H](Cc1ccc(O)cc1)C(=O)[O-].[K+] [NsTyr-2K, N-stearoyl tyrosine potassium salt]
**Result** 49.3 µg/mL
